# System: Candida albicans
# Condition Info: 20 µM
# Description: Antifungal activity against Candida albicans ATCC 90028 (CO-ADD:FG_001); MIC in YNB media using NBS plates, by OD630
Measured potencies and affinities stand elsewhere.
Let's look at some molecules and their measured Inhibition.
Please state the figure in %; there is no need to write the unit.

{"Molecule": "CC(C)c1cc(C(C)C)n2nc(N)nc2n1", "Study Target": "Candida albicans", "Assay Readout": "Inhibition", "Reported": -0.42}
{"Molecule": "Nc1n[nH]c(CO)n1.O=C(O)CO", "Study Target": "Candida albicans", "Assay Readout": "Inhibition", "Reported": 0.2}
{"Molecule": "O=C(Nc1ccc(Cl)c([N+](=O)[O-])c1)Nc1nc2ccccc2s1", "Study Target": "Candida albicans", "Assay Readout": "Inhibition", "Reported": 9.03}
{"Molecule": "Nc1n[nH]c(Nc2ccccc2)n1", "Study Target": "Candida albicans", "Assay Readout": "Inhibition", "Reported": -0.65}
{"Molecule": "CC1(c2ccc3ccccc3c2)CCC(=O)O1 (configuration not stated)", "Study Target": "Candida albicans", "Assay Readout": "Inhibition", "Reported": 2.15}

State its Inhibition for this molecule: CC(=O)NCC(O)c1ccc([N+](=O)[O-])cc1 (configuration not stated)
1.24

State its Inhibition for this molecule: CCCc1cc(=O)oc2c3c(c4c(c12)OC(C)(C)C=C4)OC(C)[C@H](C)[C@@H]3O (some centres not stated)
7.97

* * *

# Tested on: Acinetobacter baumannii
# Test Name: Antibacterial activity against Acinetobacter baumannii ATCC 19606 (CO-ADD:GN_034); MIC in CAMBH media using NBS plates, by Resazurin F(560/590)
# Assay type: functional
# Condition Info: Concentration 20 uM, ASSAY_TEST Inhibition of Bacterial Growth, detection method Resazurin, Fluorescence (ex560/em590), MEDIA CAMHB, plate type 384well, CORNING #3640, time 18 hr
Assay Readout: Inhibition (%)
Please state the figure in %; there is no need to write the unit.

{"Compound": "Cc1ccc(/N=N/c2ccc(N)cc2C)c(S(N)(=O)=O)c1", "Inhibition / %": -6.13}
{"Compound": "[O-][n+]1nc2ccccc2c2ccccc21", "Inhibition / %": -1.94}

Name the value of Inhibition reported for `O=C(N(c1ccccc1)c1ccccc1)N(c1ccccc1)c1ccccc1` when tested on Acinetobacter baumannii.
0.28

Name the value of Inhibition reported for COC1=CC(C)C2CC3OC(O)CC4C(C)=C(OC)C(=O)C(C2(C)C1=O)C34C (stereo unspecified) when tested on Acinetobacter baumannii.
8.28

Name the value of Inhibition reported for `Cc1cc(NC(=O)Nc2cc(Cl)ccc2C)no1` when tested on Acinetobacter baumannii.
4.24

Name the value of Inhibition reported for `CC(=O)NC1(C(=O)O)CCCC1` when tested on Acinetobacter baumannii.
-6.77

* * *

# System: Escherichia coli
# Test Name: Antibacterial activity against Escherichia coli ATCC 25922 (CO-ADD:GN_001); MIC in CAMBH media using NBS plates, by Resazurin F(560/590)
# Assay type: functional
# Condition Info: Concentration 20 uM, ASSAY_TEST Inhibition of Bacterial Growth, detection method Resazurin, Fluorescence (ex560/em590), MEDIA CAMHB, plate type 384well, CORNING #3640, time 18 hr
Let's look at some molecules and their measured Inhibition.
Please state the figure in %; there is no need to write the unit.

Example entries begin here.
{"Molecule": "CN(C)S(=O)(=O)N1C(=O)c2ccccc2C1=O", "Inhibition / %": -0.21}
{"Molecule": "CCOc1ccc(NC(=O)Nc2cc(C(C)C)c(O)cc2C)cc1", "Inhibition / %": -2.75}
{"Molecule": "Cc1ccncc1C(N)=O", "Inhibition / %": 17.18}
{"Molecule": "Cc1cccc(N2CCN(CC(O)COc3ccc(Cl)cc3)CC2)c1 (configuration not stated)", "Inhibition / %": 5.23}
{"Molecule": "CSc1nc2cc(S(=O)(=O)N3CCCCC3)ccc2s1", "Inhibition / %": -7.83}
{"Molecule": "O=S(=O)(O)c1ccc2c(c1)C(C(Cl)(Cl)Cl)OC(C(Cl)(Cl)Cl)O2 (configuration not stated)", "Inhibition / %": 18.82}

State its Inhibition for this molecule: `O/N=C(/c1ccccc1)c1ccc2c3c(cccc13)CC2`
6.08

State its Inhibition for this molecule: `O=C1c2ccccc2C(=O)c2c(Nc3ccc(CCO)cc3)ccc(O)c21`
9.39

State its Inhibition for this molecule: `c1ccc2[nH]c(-c3ccncc3)nc2c1`
7.11

State its Inhibition for this molecule: `Cc1cccc(Nc2sc(C(=O)c3cc4cc(Cl)ccc4o3)c(N)c2C#N)c1`
6.28

State its Inhibition for this molecule: COc1ccc2c(c1)CCN1C2CCN2C(=O)CCC21 (configuration not stated)
-9.16

State its Inhibition for this molecule: `O=C(O)c1ccc2c(c1Sc1ccccc1)C(=O)c1ccccc1C2=O`
-1.12

Cited source: ChEMBL document CHEMBL4296182
